meta.source: PubChem BioAssay AID1159580

normalized growth by entry:
Test: chemical genetic growth profiling, strain panel (AID 1159580);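 also: tested at 20 µM; growth read once vehicle control cultures reached saturation at 30 °C; 1 = growth at the plate median or of vehicle wells; lower values mean less growth of the strain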
Conditions: S. cerevisiae deletion strains, growth OD, locus YNL322C, strain KRE1 (second series), stronger effect = lower value
About 2,000 (36%) of roughly 5,500 compounds were called active. About 18% were inconclusive and are not listed. This is one part of the list.
Reply: number alone, nothing else.

Worked examples, 6 compounds total:
>  <Compound>
COc1ccc(C(=O)N2CCCC2=O)cc1

>  <normalized growth>
0.955

$$$$
>  <Compound>
C/C=C/C(=O)N(CC)c1ccccc1C

>  <normalized growth>
1.01

$$$$
>  <Compound>
CC(CN(C)C)CN1c2ccccc2Sc2ccccc21 (stereo not drawn)

>  <normalized growth>
1.04

$$$$
>  <Compound>
O=c1[nH]cnc2[nH]ncc12

>  <normalized growth>
0.993

$$$$
>  <Compound>
CC(CN(C)C)CN1c2ccccc2CCc2ccccc21 (stereo not drawn)

>  <normalized growth>
0.966

$$$$
>  <Compound>
NNCCc1ccccc1

>  <normalized growth>
1.02

$$$$

// query Consider the compound shown here: `CN(C)N=Nc1nc[nH]c1C(N)=O` What is its recorded normalized growth?
// result 0.974

// query Recorded normalized growth for `CO[C@]12C[C@@H](COC(=O)c3cncc(Br)c3)CN(C)[C@@H]1Cc1cn(C)c3cccc2c13` , please?
// result 0.985

// query So what does the record say about normalized growth for `COc1ccc(C(=O)CC(=O)c2ccc(C(C)(C)C)cc2)cc1` ?
// result 1.01

// query GET /values?readout=normalized growth&item= `CCC(=O)Nc1ccc(Cl)c(Cl)c1`
// result 0.987

// query Please give the measured normalized growth for this compound: `CCN(CCCc1ccccc1)CCCc1ccccc1`
// result 0.992

// query Fill in: normalized growth of `CNCCCN1c2ccccc2CCc2ccccc21` is ___
// result 1.02

// query Which normalized growth value belongs to `S=P(N1CC1)(N1CC1)N1CC1` ?
// result 1.01

###

Assay: chemical genetic growth profiling, strain panel (AID 1159580)
Conditions: S. cerevisiae deletion strains, growth OD, locus YER167W, strain BCK2, stronger effect = lower value
Hit rate of the full screen: of about 5,500 compounds, about 2,000 (36%) were called active. Roughly 18% stayed inconclusive and do not appear here. The list shows a part of the results.
Recorded normalized growth, one value per entry.
Answer as a number with no unit attached.

// query Which normalized growth is reported for this molecule? `N[C@@H](Cc1cc(I)c(Oc2cc(I)c(O)c(I)c2)c(I)c1)C(=O)O`
// result 1.01

// query Item under review: `N[C@H](Cc1cc(I)c(Oc2ccc(O)c(I)c2)c(I)c1)C(=O)O` . Reported normalized growth?
// result 0.946

###

Recorded normalized growth for the following compounds
Assay: chemical genetic growth profiling, strain panel (AID 1159580)
Details: S. cerevisiae deletion strains, growth OD, locus YNR049C, strain mso1, stronger effect = lower value
Out of some 5,500 compounds screened, about 2,000 (36%) were called active. Not shown: some 18% with an inconclusive outcome. This is one part of the list.
Provide a numeric answer; units are not to be included.

Take a look at these entries with their results.
>  <Compound>
CN[C@@H]1[C@H](OC2[C@H](O[C@H]3[C@H](O)[C@@H](O)[C@H](N=C(N)N)[C@@H](O)[C@@H]3N=C(N)N)O[C@@H](C)[C@]2(O)C=O)O[C@@H](CO)[C@H](O)[C@H]1O (stereo partly drawn)

>  <normalized growth>
0.999

$$$$
>  <Compound>
CCC(=O)Nc1ccc(Cl)c(Cl)c1

>  <normalized growth>
0.994

$$$$
>  <Compound>
CC(CCC(=O)O)[C@H]1CCC2C3C[C@H](O)[C@@H]4C[C@H](O)CC[C@]4(C)C3CC[C@@]21C (stereo partly drawn)

>  <normalized growth>
0.989

$$$$
>  <Compound>
CN(CCC(N)CC(=O)N[C@H]1C=CC(n2ccc(N)nc2=O)O[C@@H]1C(=O)O)C(=N)N (stereo partly drawn)

>  <normalized growth>
0.94

$$$$

// query For the compound shown here, CC(CCC(=O)O)[C@H]1CCC2C3CC[C@@H]4CCCC[C@]4(C)C3CC[C@@]21C (stereo partly drawn) , give the reported normalized growth.
// result 0.998

// query Requested read-out: normalized growth. Entry: `Cc1cc(O)c(C=O)c2c1C(=O)Oc1c(COC(=O)/C=C/C(=O)O)c(O)c(C(=O)O)c(C)c1O2`
// result 0.995

// query Entry CC(CCC(=O)O)[C@H]1CCC2C3C(C[C@H](O)[C@@]21C)[C@@]1(C)CC[C@@H](O)C[C@H]1C[C@H]3O (stereo partly drawn) : reported normalized growth = ?
// result 0.986

// query Using the record for `O=c1cc(-c2ccccc2)oc2cc(O)c(O)c(O)c12` , report its normalized growth.
// result 0.714

// query I have this compound here, `O=c1cc(-c2ccccc2)oc2cccc(O)c12` , and I need its recorded normalized growth.
// result 0.965

// query # lookup: normalized growth of `CCN(CC)CCOC(=O)C(c1ccccc1)c1ccccc1`
// result 0.96

// query Could you tell me which normalized growth is on file for Cc1cc(C)cc(OCC2CNC(=O)O2)c1 (stereo not drawn) ?
// result 0.983

// query normalized growth value for entry COC(=O)CCC(C)[C@H]1CCC2C3C(C[C@H](O)[C@@]21C)[C@@]1(C)CC[C@@H](O)C[C@H]1C[C@H]3O (stereo partly drawn)
// result 1.01

// query # query: normalized growth of entry CC(CCC(=O)O)[C@H]1CCC2C3CC[C@@H]4C[C@H](O)CC[C@]4(C)C3C[C@H](O)[C@@]21C (stereo partly drawn)
// result 0.988

// query Fill in: normalized growth of CC(C)CCCC(C)C1CCC2C3CC[C@H]4CCCC[C@]4(C)C3CC[C@]12C (stereo partly drawn) is ___
// result 1.02

// query normalized growth lookup needed for COC(=O)CCC(C)C1CCC2C3CC[C@@H]4C[C@H](O)CC[C@]4(C)C3C[C@H](O)[C@]12C (stereo partly drawn) , thanks.
// result 0.99

// query # input compound: CC[C@H](CCC(C)[C@H]1CCC2C3CCC4C[C@@H](O)CC[C@]4(C)C3CC[C@@]21C)C(C)C (stereo partly drawn) ; wanted: its normalized growth
// result 0.984

// query Which normalized growth is reported for this compound? `CC12CC3CC(C)(C1)CC(N)(C3)C2`
// result 0.986

// query Look up normalized growth: C[C@@H]1CC2C3C[C@H](F)C4=CC(=O)C=C[C@]4(C)[C@@]3(F)[C@@H](O)C[C@]2(C)[C@@]1(O)C(=O)COC(=O)C(C)(C)C (stereo partly drawn)
// result 0.998

###

Assay: chemical genetic growth profiling, strain panel (AID 1159580);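 also: tested at 20 µM; growth read once vehicle control cultures reached saturation at 30 °C; 1 = growth at the plate median or of vehicle wells; lower values mean less growth of the strain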
Conditions: S. cerevisiae deletion strains, growth OD, locus YHR094C, strain hxt1, stronger effect = lower value
The campaign covered roughly 5,500 compounds. About 2,000 (36%) were called active. Inconclusive results (about 18%) are left out. The list shows a part of the results.
Assay readout: normalized growth

// solved cases for normalized growth follow
>  <Chem smiles>
O=c1cc(-c2ccccc2)oc2c(O)c(O)ccc12

>  <normalized growth>
0.99 (inactive)

$$$$
>  <Chem smiles>
Cc1cc(=O)oc2c(O)c(O)ccc12

>  <normalized growth>
1.02 (inactive)

$$$$

// query Please report the recorded normalized growth for `O=c1cc(-c2ccccc2)oc2cc(O)cc(O)c12` .
// result 0.964 (inactive)

###

Test: chemical genetic growth profiling, strain panel (AID 1159580);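 also: tested at 20 µM; growth read once vehicle control cultures reached saturation at 30 °C; 1 = growth at the plate median or of vehicle wells; lower values mean less growth of the strain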
Conditions: S. cerevisiae deletion strains, growth OD, locus YLR268W, strain sec22, stronger effect = lower value
About 2,000 (36%) of roughly 5,500 compounds were called active. Inconclusive results (about 18%) are left out. The list shows a part of the results.
Field 'label' (enum: Satisfied / Not satisfied). Set to Satisfied when normalized growth is strictly under 1; else Not satisfied.

Use these answered entries as a reference point.
>  <Compound>
C=C1C(C2(C)C=CC(=O)C(C)(C)C2CC(=O)OC)CC[C@@]2(C)[C@H](c3ccoc3)OC(=O)C3OC132 (some centres undefined)

>  <Assigned label>
Satisfied

$$$$
>  <Compound>
O=c1cc(-c2ccccc2)oc2c(O)c(O)ccc12

>  <Assigned label>
Satisfied

$$$$

// query normalized growth strictly < 1 for this compound? `Clc1ccc2c(c1)C(N1CCNCC1)=Nc1ccccc1O2`
// result Not satisfied

###

Assay: chemical genetic growth profiling, strain panel (AID 1159580);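 also: tested at 20 µM; growth read once vehicle control cultures reached saturation at 30 °C; 1 = growth at the plate median or of vehicle wells; lower values mean less growth of the strain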
Conditions: S. cerevisiae deletion strains, growth OD, locus YOL012C, strain htz1
About 2,000 (36%) of roughly 5,500 compounds were called active. Roughly 18% stayed inconclusive and do not appear here. This is one part of the list.
Could you label it class 1 if measured normalized growth is 1 or higher, and class 0 otherwise?

// query I'd appreciate it if you could say whether `CC(=O)Nc1nnc(S(N)(=O)=O)s1` has normalized growth at least equal to 1.
// result class 0

// query Could you tell me if the measured normalized growth of `CC(=O)N=c1sc(S(N)(=O)=O)nn1C` reaches 1 or more?
// result class 1
